assay: Cytotoxicity against human THP1 cells assessed as reduction in cell viability incubated for 72 hrs by MTT assay; type: cell-based; details: THP-1 cells
Test readout: CC50 at 72 h (µM)
All answers are understood in µM, so give the number only.

Noted for N=C(N)c1ccc(OCCCCCOc2ccc(C(=N)N)cc2)cc1 [PENTAMIDINE] : its CC50 at 72 h reads 31.2

Consider now this further compound.
Noted for COc1cccc2c1C(=O)c1c(O)c3c(c(O)c1C2=O)C[C@@](O)(C(=O)CO)C[C@@H]3O[C@H]1C[C@H](N)[C@H](O)[C@H](C)O1 [DOXORUBICIN] : its CC50 at 72 h reads 0.008

Recorded values, source ChEMBL document CHEMBL3407329.
